Measured values drawn from patent US11584737B2 for this set.

Target: CDK12/CycK complex (Homo sapiens)
Sequence (Q9NYV4 whole entry, species assumed): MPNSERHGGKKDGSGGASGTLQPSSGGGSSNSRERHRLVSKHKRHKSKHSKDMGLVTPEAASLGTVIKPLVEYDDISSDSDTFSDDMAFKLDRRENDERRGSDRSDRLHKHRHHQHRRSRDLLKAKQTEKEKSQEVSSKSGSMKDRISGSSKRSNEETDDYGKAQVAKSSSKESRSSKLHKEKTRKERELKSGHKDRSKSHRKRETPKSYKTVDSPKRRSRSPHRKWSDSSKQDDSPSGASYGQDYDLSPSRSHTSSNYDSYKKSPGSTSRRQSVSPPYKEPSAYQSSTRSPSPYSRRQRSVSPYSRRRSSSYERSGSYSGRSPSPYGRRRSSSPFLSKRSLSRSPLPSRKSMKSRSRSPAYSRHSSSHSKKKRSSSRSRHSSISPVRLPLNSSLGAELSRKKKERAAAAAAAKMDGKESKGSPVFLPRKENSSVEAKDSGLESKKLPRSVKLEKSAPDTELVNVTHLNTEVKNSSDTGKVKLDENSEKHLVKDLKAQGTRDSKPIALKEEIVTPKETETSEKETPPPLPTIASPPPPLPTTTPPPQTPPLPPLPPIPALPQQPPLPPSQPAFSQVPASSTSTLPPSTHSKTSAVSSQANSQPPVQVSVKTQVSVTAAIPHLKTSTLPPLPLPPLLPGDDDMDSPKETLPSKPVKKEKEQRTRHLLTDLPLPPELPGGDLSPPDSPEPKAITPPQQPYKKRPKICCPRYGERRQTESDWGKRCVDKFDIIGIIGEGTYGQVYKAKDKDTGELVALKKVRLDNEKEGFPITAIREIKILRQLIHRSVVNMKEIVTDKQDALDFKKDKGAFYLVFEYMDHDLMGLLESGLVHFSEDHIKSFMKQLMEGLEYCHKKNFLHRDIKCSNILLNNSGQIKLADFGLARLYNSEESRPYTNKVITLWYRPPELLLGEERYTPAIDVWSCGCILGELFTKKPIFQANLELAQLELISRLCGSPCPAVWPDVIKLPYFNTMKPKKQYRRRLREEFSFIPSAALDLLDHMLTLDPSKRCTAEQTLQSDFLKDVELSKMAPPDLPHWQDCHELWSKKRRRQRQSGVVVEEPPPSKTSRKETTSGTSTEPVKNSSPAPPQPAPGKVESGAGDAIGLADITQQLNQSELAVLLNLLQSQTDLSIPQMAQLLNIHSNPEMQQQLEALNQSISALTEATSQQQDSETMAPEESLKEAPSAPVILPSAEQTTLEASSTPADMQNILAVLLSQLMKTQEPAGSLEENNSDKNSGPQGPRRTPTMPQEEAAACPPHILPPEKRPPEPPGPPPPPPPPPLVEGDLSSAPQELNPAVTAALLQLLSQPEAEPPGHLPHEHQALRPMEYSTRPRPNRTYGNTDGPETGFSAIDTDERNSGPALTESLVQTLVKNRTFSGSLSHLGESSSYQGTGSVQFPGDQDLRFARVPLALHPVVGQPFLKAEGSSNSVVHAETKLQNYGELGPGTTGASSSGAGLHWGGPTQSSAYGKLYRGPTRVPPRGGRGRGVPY
Sequence (O75909 whole entry partner, species assumed): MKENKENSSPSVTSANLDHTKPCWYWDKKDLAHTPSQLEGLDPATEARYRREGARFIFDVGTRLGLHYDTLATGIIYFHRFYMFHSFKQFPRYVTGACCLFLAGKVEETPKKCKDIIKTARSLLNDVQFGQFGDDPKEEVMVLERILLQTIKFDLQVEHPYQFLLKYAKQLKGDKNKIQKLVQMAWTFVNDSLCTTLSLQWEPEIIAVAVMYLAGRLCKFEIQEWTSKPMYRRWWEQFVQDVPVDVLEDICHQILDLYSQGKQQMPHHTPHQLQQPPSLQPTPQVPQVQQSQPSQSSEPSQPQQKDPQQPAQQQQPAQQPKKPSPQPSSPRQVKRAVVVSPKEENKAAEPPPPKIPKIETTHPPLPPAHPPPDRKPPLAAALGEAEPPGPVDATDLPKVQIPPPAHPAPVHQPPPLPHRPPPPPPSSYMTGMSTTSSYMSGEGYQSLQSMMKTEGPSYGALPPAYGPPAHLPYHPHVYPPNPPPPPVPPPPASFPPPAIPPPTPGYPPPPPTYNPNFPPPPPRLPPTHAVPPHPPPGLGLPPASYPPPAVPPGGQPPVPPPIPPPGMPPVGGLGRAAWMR
Experiment: Measurement of CDK12 inhibitory activity by binding assay (TR-FRET, 66 nM BODIPY-FL-labeled AT-7519)
Settings: inhibitory rate against CDK12 at 1 μM test compound, 66 nM BODIPY-FL-labeled AT-7519, 2 nM CDK12/CycK
Value kind: inhibition at 1 µM (%)
Expressed in %, but write only the number.

COc1ncc(-c2ccc(N(C(=O)NCc3ccccn3)[C@H]3CC[C@H](Nc4ncc(C(F)(F)F)c(N5CC(C)(O)C5)n4)CC3)nc2)cn1 104

// query Look up inhibition at 1 µM: `Cn1ccc(-c2ccc(N(C(=O)NCc3ccccc3)[C@H]3CC[C@H](Nc4ncc(C#N)c(-c5ccc(C#N)s5)n4)CC3)cn2)cc1=O`
// result 92

// query Fill in the blank: the reported inhibition at 1 µM of `Cn1cc(-c2ccc(N(C(=O)NCc3ccccc3)[C@H]3CC[C@H](Nc4ncc(C(F)(F)F)c(N5CCC6(COC6)C5)n4)CC3)nc2)cn1` is ____.
// result 102
